Hi there, I'd appreciate the recorded solubility for every entry that follows.
Experiment: Kinetic solubility in aqueous media (nephelometry)
Type: physicochemical
Conditions: phosphate citrate buffer, pH 7.4, aqueous buffer, kinetic from dmso stock, phosphate citrate buffer pH 7.4, turbidity of three dilution steps; read-out: Solubility Score

O=C(NO)c1cnc(N2CCN(S(=O)(=O)c3ccc(-c4cccc5cccnc45)cc3)CC2)nc1 | < 75.8 µM

Dear reader, for each entry below, please note its solubility.
1. O=C(NO)c1ccc(N2CCN(S(=O)(=O)c3ccc(Cl)cc3)CC2)cc1
2. CCCc1ccc(S(=O)(=O)N2CCN(c3ccc(C(=O)NO)cc3)CC2)cc1
3. O=C(NO)c1cnc(N2CCN(S(=O)(=O)c3ccc(-c4cccc5c4sc4ccccc45)cc3)CC2)nc1

Result string:
1. < 75.8 µM
2. < 75.8 µM
3. 75.8 to 454 µM

* * *

Please respond with reported Enzyme activity pIC50 for every item in the list.
Biological target: histone deacetylase (HeLa nuclear extracts)
Test: In vitro assay for inhibition of histone deacetylase
Format: biochemical
Details: [3H]acetylated histone H4 peptide substrate
One number for each entry.

Example cases with answers are listed next.
O=C(NO)c1cnc(N2C[C@@H]3C[C@H]2CN3S(=O)(=O)c2ccc3ccccc3c2)nc1 | 7.428
O=C(NO)c1cnc(N2CCN(S(=O)(=O)c3ccc(-c4ccccc4)cc3)CC2)nc1 | 8.078
O=C(NO)c1cnc(N2CCN(S(=O)(=O)c3ccc(-c4ccccc4C(F)(F)F)cc3)CC2)nc1 | 7.713
Cc1noc(C)c1-c1ccc(S(=O)(=O)N2CCN(c3ncc(C(=O)NO)cn3)CC2)cc1 | 7.54

Query string: Report Enzyme activity pIC50, nothing else, for this compound: O=C(NO)c1cnc(N2CCN(S(=O)(=O)c3ccc4ccccc4c3)C(C(=O)NO)C2)nc1 (stereo not drawn)
Result string: 7.06

* * *

Experiment: Kinetic solubility in aqueous media (nephelometry)
Format: physicochemical
Details: phosphate citrate buffer, pH 7.4, aqueous buffer, kinetic from dmso stock, phosphate citrate buffer pH 7.4, turbidity of three dilution steps; read-out: Solubility Score
measurementKind: solubility

Lab note: each compound below needs its solubility filled in.
1. COc1cccc(-c2ccc(S(=O)(=O)N3CCN(c4ncc(C(=O)NO)cn4)CC3)cc2)c1
2. O=C(NO)c1cnc(N2C[C@@H]3C[C@H]2CN3S(=O)(=O)c2ccc3ccccc3c2)nc1
3. O=C(NO)c1cnc(N2CCN(S(=O)(=O)c3ccc(-c4ccc(C(F)(F)F)cc4)cc3)CC2)nc1
4. CN(C)Cc1cccc(-c2ccc(S(=O)(=O)N3CCN(c4ncc(C(=O)NO)cn4)CC3)cc2)c1
5. O=C(NO)c1cnc(N2CCN(S(=O)(=O)c3c(Cl)nc4sccn34)CC2)nc1
6. CN(C)CC1CN(c2ncc(C(=O)NO)cn2)CCN1S(=O)(=O)c1ccc(-c2ccccc2)cc1 (stereo not shown)
7. O=C(NO)c1cnc(N2CCN(S(=O)(=O)c3ccc4cccnc4c3)CC2)nc1
8. O=C(NO)c1ccc(NC(=O)N2CCN(S(=O)(=O)c3ccc4ccccc4c3)CC2)cc1

Result string:
["75.8 to 454 µM", "> 454 µM", "< 75.8 µM", "> 454 µM", "> 454 µM", "> 454 µM", "> 454 µM", "> 454 µM"]

Batch request: solubility for each of the following compounds.
1. O=C(NO)c1cnc(N2CCN(S(=O)(=O)c3ccc(-c4cc(Cl)cc(Cl)c4)cc3)CC2)nc1
2. Cc1noc(C)c1-c1ccc(S(=O)(=O)N2CCN(c3ncc(C(=O)NO)cn3)CC2)cc1

Result string:
["75.8 to 454 µM", "> 454 µM"]
